Values from patent US20250018014A1

Target: T1, full-length human Regnase-1 with a FLAG tag on the N-terminal side and a biotin ligase BirA recognition … (human, UniProt Q5D1E8 1-599, biotinylated at the BirA recognition sequence when required)
T1 sequence: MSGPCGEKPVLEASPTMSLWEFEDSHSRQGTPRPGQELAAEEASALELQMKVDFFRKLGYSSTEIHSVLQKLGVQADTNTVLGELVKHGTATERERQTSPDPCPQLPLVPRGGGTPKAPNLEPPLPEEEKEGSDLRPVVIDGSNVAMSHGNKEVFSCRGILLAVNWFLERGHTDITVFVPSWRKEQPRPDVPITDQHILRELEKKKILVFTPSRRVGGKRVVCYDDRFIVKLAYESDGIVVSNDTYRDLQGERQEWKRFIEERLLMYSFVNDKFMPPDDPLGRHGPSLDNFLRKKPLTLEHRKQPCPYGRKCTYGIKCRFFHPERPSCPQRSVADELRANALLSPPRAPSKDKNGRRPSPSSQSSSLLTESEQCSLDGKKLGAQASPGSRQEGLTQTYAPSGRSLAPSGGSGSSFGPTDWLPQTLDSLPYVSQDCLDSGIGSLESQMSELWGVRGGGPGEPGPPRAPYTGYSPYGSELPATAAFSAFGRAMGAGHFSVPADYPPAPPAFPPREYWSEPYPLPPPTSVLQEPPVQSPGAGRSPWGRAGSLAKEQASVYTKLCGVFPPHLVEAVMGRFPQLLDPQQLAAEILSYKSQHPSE
Assay: cell-based or functional assay
Value kind: 50% inhibition concentration, Regnase-1 phosphorylation by TBK1 (AlphaScreen) (µM)
Report as a plain number; the unit µM is understood.

Fill in the blank: the reported 50% inhibition concentration, Regnase-1 phosphorylation by TBK1 (AlphaScreen) of XGYANSWYNIWD (HELM PEPTIDE1{[meA].G.Y.A.N.S.W.Y.N.I.W.D.[C1CCN([*:1])C1]}$PEPTIDE1,PEPTIDE1,1:R1-12:R3$$$V2.0; SMILES CC[C@H](C)[C@@H]1NC(=O)[C@H](CC(N)=O)NC(=O)[C@H](Cc2ccc(O)cc2)NC(=O)[C@H](Cc2c[nH]c3ccccc23)NC(=O)[C@H](CO)NC(=O)[C@H](CC(N)=O)NC(=O)[C@H](C)NC(=O)[C@H](Cc2ccc(O)cc2)NC(=O)CNC(=O)[C@H](C)N(C)C(=O)C[C@@H](C(=O)N2CCCC2)NC(=O)[C@H](Cc2c[nH]c3ccccc23)NC1=O) [PP2] is ____.
21.7

Fill in the blank: the reported 50% inhibition concentration, Regnase-1 phosphorylation by TBK1 (AlphaScreen) of XWIWDFWNED (HELM PEPTIDE1{[meA].W.I.W.D.F.W.N.E.D.[C1CCN([*:1])C1]}$PEPTIDE1,PEPTIDE1,1:R1-10:R3$$$V2.0; SMILES CC[C@H](C)[C@@H]1NC(=O)[C@H](Cc2c[nH]c3ccccc23)NC(=O)[C@H](C)N(C)C(=O)C[C@@H](C(=O)N2CCCC2)NC(=O)[C@H](CCC(=O)O)NC(=O)[C@H](CC(N)=O)NC(=O)[C@H](Cc2c[nH]c3ccccc23)NC(=O)[C@H](Cc2ccccc2)NC(=O)[C@H](CC(=O)O)NC(=O)[C@H](Cc2c[nH]c3ccccc23)NC1=O) [PP24] is ____.
35.7
